Multi-source literature compilation: pIC50 on BTK (Homo sapiens, UniProt Q06187).
Scale for pIC50: -log10 of concentration given in mol/L; no unit attached.

Previously resolved entries follow.
smilesText: CNC(=O)[C@H]1CC[C@H](Nc2ccnc3[nH]cc(C(=O)c4ccc(Oc5ccccc5)cc4Cl)c23)CC1
pIC50: 7.66
//
smilesText: Nc1nccc2c1n(-c1ccc(Oc3ccccc3)c(F)c1)c(=O)n2[C@@H]1CCCN(C(=O)/C=C/CF)C1
pIC50: 8.55
//
smilesText: COC[C@]1(C)Nc2c(cnc3[nH]cc(C(=O)c4ccccc4Cl)c23)NC1=O
pIC50: 8.24
//
smilesText: C=CC(=O)N(C)CC#Cc1c(N)ncnc1-c1cc(F)cc(N2CCc3cc(C4CC4)cc(F)c3C2=O)c1
pIC50: 8.42

Exercise: Give measured pIC50 for [2H]C([2H])([2H])OC[C@]1(C([2H])([2H])[2H])Nc2c(cnc3[nH]cc(C(=O)c4ccc(Oc5ccccc5)cc4Cl)c23)NC1=O (BTK (Homo sapiens, UniProt Q06187)).
Key: 7.97
